molecular target: ~100 representative kinases (Homo sapiens, UniProt Q9UEE5); construct: Recombinant protein kinase domains with a concentration of 2 μM; experiment: DSF 100 kinase selectivity screen; format: binding; conditions: Protein STK17A; DSF; average of three replicates;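 for dTm: compound tested at 20 µM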
Sequence (Q9UEE5 whole entry, the tested form may be a part): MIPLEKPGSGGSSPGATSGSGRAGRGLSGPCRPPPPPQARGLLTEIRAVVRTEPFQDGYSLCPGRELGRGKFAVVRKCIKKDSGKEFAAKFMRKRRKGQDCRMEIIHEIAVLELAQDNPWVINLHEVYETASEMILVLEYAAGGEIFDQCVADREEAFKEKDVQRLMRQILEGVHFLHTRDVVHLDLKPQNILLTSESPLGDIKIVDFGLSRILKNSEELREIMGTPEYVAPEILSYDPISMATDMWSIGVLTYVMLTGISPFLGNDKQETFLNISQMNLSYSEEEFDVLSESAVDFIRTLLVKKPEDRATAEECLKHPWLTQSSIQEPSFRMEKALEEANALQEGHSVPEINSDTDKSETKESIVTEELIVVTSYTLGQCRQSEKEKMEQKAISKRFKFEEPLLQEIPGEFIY

{"columns": ["COMPOUND", "ENDPOINT_UNIT", "dTm"],
 "data": [
  ["Cc1ccc(-n2nc(C(C)(C)C)cc2NC(=O)Nc2cccc(-c3c[nH]c4nc(Cl)nc(N5CCOCC5)c34)c2)cc1 [Compound 30]", "K", 0.28],
  ["Cn1cc(-c2c[nH]c3ncnc(N4CCOCC4)c23)cc1C#N [PFE-360]", "K", 0.43],
  ["Cc1cc(F)ccc1NC(=O)C1(C(=O)Nc2cccc(-c3c[nH]c4ncnc(N5CCOCC5)c34)c2)CC1 [Compound 24]", "K", -0.51],
  ["CNC(=O)c1cc(Oc2ccc(NC(=O)Nc3cc(C(C)(C)C)nn3-c3ccc4ncccc4c3)c(F)c2)ccn1 [Rebastinib, reference compound]", "K", 3.53]
]}

---

Tested on: ~100 representative kinases
Assay: DSF 100 kinase selectivity screen
Format: binding
Settings: number of kinases with thermal shift >5 K divided by total number of kinases screened
Procedure: Recombinant protein kinase domains with a concentration of 2 μM were mixed with a 20 μM compound solution in dimethyl sulfoxide (DMSO), 20 mM Hepes (pH 7.5), and 500 mM NaCl. SYPRO Orange (5000×, Invitrogen) was added as a fluorescence probe (1μl/ml). Subsequently, temperature-dependent protein unfolding profiles were measured using the QuantStudio 5 realtime PCR machine (Thermo Fisher Scientific, Waltham, MA, USA). […] The temperature was raised with a step rate of 3°C/min. […]
Outcome: YES for S(5K) of at least 0.2; NO for anything lower.

{"columns": ["SMILES_REPR", "LABEL_CLASS"],
 "data": [
  ["O=C(Nc1cccc(-c2c[nH]c3ncnc(N4CCOCC4)c23)c1)C1(C(=O)Nc2ccc(F)c(Br)c2)CC1", "YES"],
  ["Cc1cc(NC(=O)C2(C(=O)Nc3cccc(-c4c[nH]c5ncnc(N6CCOCC6)c45)c3)CC2)ccc1F", "YES"],
  ["Cc1cc(NC(=O)C2(C(=O)Nc3ccc(F)cc3)CC2)cc(-c2c[nH]c3ncnc(N4CCOCC4)c23)c1", "NO"],
  ["O=C(Nc1cccc(-c2c[nH]c3ncnc(N4CCOCC4)c23)c1)C1(C(=O)Nc2ccc(F)cc2F)CC1", "NO"],
  ["CC(C)(C)c1cc(NC(=O)Nc2cccc(-c3c[nH]c4ncnc(N5CCOCC5)c34)c2)n(-c2ccc3ncccc3c2)n1", "YES"],
  ["CC(C)(C)c1cccc(NC(=O)C2(C(=O)Nc3cccc(-c4c[nH]c5ncnc(N6CCOCC6)c45)c3)CC2)c1", "YES"]
]}

---

List of dTm values.
biological target: ~100 representative kinases (Homo sapiens, UniProt Q96PY6); construct: Recombinant protein kinase domains with a concentration of 2 μM; assay: DSF 100 kinase selectivity screen; format: binding; settings: protein NEK1; average of three replicates;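 for dTm: compound tested at 20 µM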
Sequence (Q96PY6 whole entry, the tested form may be a part): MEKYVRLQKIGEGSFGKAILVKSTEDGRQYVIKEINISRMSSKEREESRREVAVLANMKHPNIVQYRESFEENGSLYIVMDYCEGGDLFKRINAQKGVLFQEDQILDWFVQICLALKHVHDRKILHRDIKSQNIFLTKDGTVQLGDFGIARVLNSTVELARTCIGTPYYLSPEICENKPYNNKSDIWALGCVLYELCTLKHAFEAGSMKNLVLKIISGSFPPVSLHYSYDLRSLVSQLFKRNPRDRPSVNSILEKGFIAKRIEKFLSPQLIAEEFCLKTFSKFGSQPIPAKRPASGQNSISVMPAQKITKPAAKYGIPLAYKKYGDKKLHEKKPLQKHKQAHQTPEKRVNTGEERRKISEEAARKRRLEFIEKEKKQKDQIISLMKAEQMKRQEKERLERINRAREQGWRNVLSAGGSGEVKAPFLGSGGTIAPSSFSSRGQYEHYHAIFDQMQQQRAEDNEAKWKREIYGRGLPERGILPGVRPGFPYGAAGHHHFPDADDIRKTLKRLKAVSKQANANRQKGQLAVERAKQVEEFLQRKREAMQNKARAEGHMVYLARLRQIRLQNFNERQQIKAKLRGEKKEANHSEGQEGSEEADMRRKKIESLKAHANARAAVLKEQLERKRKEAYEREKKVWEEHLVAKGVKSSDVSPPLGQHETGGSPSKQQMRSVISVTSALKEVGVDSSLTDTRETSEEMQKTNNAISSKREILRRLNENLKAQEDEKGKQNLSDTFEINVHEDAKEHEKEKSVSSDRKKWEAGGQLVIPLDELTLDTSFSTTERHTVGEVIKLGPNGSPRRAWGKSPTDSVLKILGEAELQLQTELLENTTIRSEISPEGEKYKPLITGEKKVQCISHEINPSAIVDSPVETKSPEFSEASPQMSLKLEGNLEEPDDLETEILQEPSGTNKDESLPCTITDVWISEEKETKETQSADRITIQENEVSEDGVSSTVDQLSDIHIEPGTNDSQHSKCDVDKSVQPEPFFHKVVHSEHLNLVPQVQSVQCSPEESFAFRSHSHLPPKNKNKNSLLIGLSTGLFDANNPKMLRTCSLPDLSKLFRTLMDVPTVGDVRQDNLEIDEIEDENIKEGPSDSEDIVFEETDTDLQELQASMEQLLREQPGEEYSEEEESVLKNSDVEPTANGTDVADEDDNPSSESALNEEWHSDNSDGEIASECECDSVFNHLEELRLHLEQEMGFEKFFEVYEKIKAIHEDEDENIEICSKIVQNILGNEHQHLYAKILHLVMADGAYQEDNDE

{"columns": ["SMILES_REPR", "dTm"],
 "data": [
  ["CCNc1nc(Nc2cc(F)c(C(=O)N3CCOCC3)cc2OC)ncc1C(F)(F)F", "0.68 K"],
  ["COc1cc(C(=O)N2CCOCC2)c(F)cc1Nc1nc(N(C)C)c2c(Cl)c[nH]c2n1", "0.22 K"],
  ["Cc1ccc(C(=O)Nc2ccc(CN3CCN(C)CC3)c(C(F)(F)F)c2)cc1C#Cc1c[nH]c2ncnc(N3CCOCC3)c12", "-0.11 K"],
  ["CC(C)(C)c1cc(NC(=O)Nc2cccc(-c3c[nH]c4ncnc(N5CCOCC5)c34)c2)n(-c2ccc3ncccc3c2)n1", "0.13 K"],
  ["CCSc1nc(NC)c2c(-c3cccc(NC(=O)Nc4cc(C(C)(C)C)nn4-c4ccc(C)cc4)c3)c[nH]c2n1", "-1.34 K"],
  ["O=C(Nc1cccc(-c2c[nH]c3ncnc(N4CCOCC4)c23)c1)C1(C(=O)Nc2ccc(F)c(Cl)c2)CC1", "-0.32 K"],
  ["O=C(Nc1cccc(-c2c[nH]c3ncnc(N4CCOCC4)c23)c1)C1(C(=O)Nc2ccc(F)c(Br)c2)CC1", "-0.89 K"]
]}

---

molecular target: ~100 representative kinases (Homo sapiens, UniProt O14965); construct: Recombinant protein kinase domains with a concentration of 2 μM; assay: DSF 100 kinase selectivity screen; type: binding; conditions: Protein STK6; DSF; average of three replicates;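 for dTm: compound tested at 20 µM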
Sequence (O14965 whole entry, the tested form may be a part): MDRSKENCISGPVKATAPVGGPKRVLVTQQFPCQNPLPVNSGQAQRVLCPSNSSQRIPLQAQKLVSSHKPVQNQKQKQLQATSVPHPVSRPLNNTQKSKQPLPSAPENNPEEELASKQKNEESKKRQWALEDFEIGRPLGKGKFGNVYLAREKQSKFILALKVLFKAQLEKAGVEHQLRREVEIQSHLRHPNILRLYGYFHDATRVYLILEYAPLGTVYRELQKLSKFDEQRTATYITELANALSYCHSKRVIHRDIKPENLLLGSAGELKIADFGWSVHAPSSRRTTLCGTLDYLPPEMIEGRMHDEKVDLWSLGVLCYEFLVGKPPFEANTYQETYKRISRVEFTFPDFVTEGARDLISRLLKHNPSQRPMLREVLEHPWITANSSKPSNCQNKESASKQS

{"columns": ["COMPOUND", "TARGET", "dTm [K]"],
 "data": [
  ["CNC(=O)c1cc(Oc2ccc(NC(=O)Nc3cc(C(C)(C)C)nn3-c3ccc4ncccc4c3)c(F)c2)ccn1 [Rebastinib, reference compound]", "~100 representative kinases (Homo sapiens, UniProt O14965)", 1.83],
  ["O=C(Nc1ccc(Cl)cc1)C1(C(=O)Nc2cccc(-c3c[nH]c4ncnc(N5CCOCC5)c34)c2)CC1", "~100 representative kinases (Homo sapiens, UniProt O14965)", 9.16],
  ["COc1cc(S(C)(=O)=O)ccc1Nc1nc(N(C)C)c2c(Cl)c[nH]c2n1", "~100 representative kinases (Homo sapiens, UniProt O14965)", -0.19],
  ["O=C(Nc1cccc(-c2c[nH]c3ncnc(N4CCOCC4)c23)c1)C1(C(=O)Nc2ccc(F)c(Br)c2F)CC1", "~100 representative kinases (Homo sapiens, UniProt O14965)", 3.83],
  ["Cc1cc(F)ccc1NC(=O)C1(C(=O)Nc2cccc(-c3c[nH]c4ncnc(N5CCOCC5)c34)c2)CC1", "~100 representative kinases (Homo sapiens, UniProt O14965)", 6.56],
  ["COc1cc(NC(=O)C2(C(=O)Nc3cccc(-c4c[nH]c5ncnc(N6CCOCC6)c45)c3)CC2)ccc1F", "~100 representative kinases (Homo sapiens, UniProt O14965)", 6.06],
  ["O=C(Nc1cccc(-c2c[nH]c3ncnc(N4CCOCC4)c23)c1)C1(C(=O)Nc2cccc3c2CCC3)CC1", "~100 representative kinases (Homo sapiens, UniProt O14965)", 4.34]
]}

---

Target: ~100 representative kinases (Homo sapiens)
Construct: Recombinant protein kinase domains with a concentration of 2 μM
Assay: DSF 100 kinase selectivity screen;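 for dTm: compound tested at 20 µM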
Assay type: binding
Details: protein PAK4; average of three replicates
Method: Recombinant protein kinase domains with a concentration of 2 μM were mixed with a 20 μM compound solution in dimethyl sulfoxide (DMSO), 20 mM Hepes (pH 7.5), and 500 mM NaCl. SYPRO Orange (5000×, Invitrogen) was added as a fluorescence probe (1μl/ml). Subsequently, temperature-dependent protein unfolding profiles were measured using the QuantStudio 5 realtime PCR machine (Thermo Fisher Scientific, Waltham, MA, USA). […] The temperature was raised with a step rate of 3°C/min. […]
List of dTm values.

{"columns": ["SMILES_REPR", "dTm (K)"],
 "data": [
  ["CCc1ccc(NC(=O)C2(C(=O)Nc3cccc(-c4c[nH]c5ncnc(N6CCOCC6)c45)c3)CC2)cc1", -0.0471],
  ["O=C(Nc1cccc(-c2c[nH]c3ncnc(N4CCOCC4)c23)c1)C1(C(=O)Nc2ccc(F)cc2F)CC1", -0.00913],
  ["O=C(Nc1cccc(-c2c[nH]c3ncnc(N4CCOCC4)c23)c1)C1(C(=O)Nc2ccc(F)c(F)c2)CC1", 0.06],
  ["COc1cc(S(C)(=O)=O)ccc1Nc1nc(N(C)C)c2c(Cl)c[nH]c2n1", 0.22],
  ["COc1ccc(NC(=O)C2(C(=O)Nc3cccc(-c4c[nH]c5ncnc(N6CCOCC6)c45)c3)CC2)cc1", -0.80],
  ["Cc1ccc(-n2nc(C(C)(C)C)cc2NC(=O)Nc2cccc(-c3c[nH]c4ncnc(N5CCOCC5)c34)c2)cc1", 1.80],
  ["C[C@@H]1CN(c2cc(-c3n[nH]c4ccc(OC5(C)CC5)cc34)ncn2)C[C@H](C)O1", -0.10]
]}

---

Target: ~100 representative kinases (Homo sapiens)
Construct: Recombinant protein kinase domains with a concentration of 2 μM
Experiment: DSF 100 kinase selectivity screen;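 for dTm: compound tested at 20 µM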
Assay type: binding
Conditions: Protein DYRK1A; average of three replicates
Method: Recombinant protein kinase domains with a concentration of 2 μM were mixed with a 20 μM compound solution in dimethyl sulfoxide (DMSO), 20 mM Hepes (pH 7.5), and 500 mM NaCl. SYPRO Orange (5000×, Invitrogen) was added as a fluorescence probe (1μl/ml). Subsequently, temperature-dependent protein unfolding profiles were measured using the QuantStudio 5 realtime PCR machine (Thermo Fisher Scientific, Waltham, MA, USA). […] The temperature was raised with a step rate of 3°C/min. […]
List of dTm values.

{"columns": ["COMPOUND", "dTm [K]"],
 "data": [
  ["O=C(Nc1cccc(-c2c[nH]c3ncnc(N4CCOCC4)c23)c1)C1(C(=O)Nc2cc(Br)c(F)cc2F)CC1 [Compound 25]", 0.31],
  ["Cc1ccc(-n2nc(C(C)(C)C)cc2NC(=O)Nc2cccc(-c3c[nH]c4nc(Cl)nc(N5CCOCC5)c34)c2)cc1 [Compound 30]", -4.19],
  ["CCc1ccc(NC(=O)C2(C(=O)Nc3cccc(-c4c[nH]c5ncnc(N6CCOCC6)c45)c3)CC2)cc1 [Compound 15]", 3.55],
  ["COc1ccc(NC(=O)C2(C(=O)Nc3cccc(-c4c[nH]c5ncnc(N6CCOCC6)c45)c3)CC2)cc1 [Compound 16]", 0.49],
  ["CNC(=O)c1cc(Oc2ccc(NC(=O)Nc3cc(C(C)(C)C)nn3-c3ccc4ncccc4c3)c(F)c2)ccn1 [Rebastinib, reference compound]", 0.55],
  ["O=C(Nc1ccc(F)cc1)C1(C(=O)Nc2cccc(-c3c[nH]c4ncnc(N5CCOCC5)c34)c2)CC1 [Compound 2]", 4.73],
  ["O=C(Nc1cccc(-c2c[nH]c3ncnc(N4CCOCC4)c23)c1)C1(C(=O)Nc2ccc(F)cc2F)CC1 [Compound 23]", 1.28]
]}

Origin of values: paper PMC12136037
